- measuredOn: N-terminal Xaa-Pro-Lys N-methyltransferase 1 (Homo sapiens) (UniProt Q9BV86)
- Sequence (Q9BV86 whole entry, looked up): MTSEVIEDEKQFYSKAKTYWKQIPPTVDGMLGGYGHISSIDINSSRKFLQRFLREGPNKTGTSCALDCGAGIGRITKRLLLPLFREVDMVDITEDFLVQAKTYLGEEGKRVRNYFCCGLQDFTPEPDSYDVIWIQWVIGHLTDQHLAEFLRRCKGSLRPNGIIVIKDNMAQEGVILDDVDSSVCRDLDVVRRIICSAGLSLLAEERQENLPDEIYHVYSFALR
- assayComment: qHTS Assay for Inhibitors of N-terminal methyltransferase 1 (NTMT1): ThioGlo3 Assay Confirmatory Screen, Round 1. Further: nearly all actives have a fitted effect of over 80% in size.
- experimentalSetup: NTMT1 SAHH-coupled ThioGlo3 fluorescence, 30 min; series mostly up to 56.8 µM
Records with an inconclusive call do not appear. Activity calls are given as the source filed them. The call rests on the fitted dose curve; in most records, active means well fitted inhibition curve with a large enough effect; inconclusive means small, poorly fitted or top-dose-only effect; inactive means no such curve, though single readings can be large or run the other way.
A correct response names exactly one class from Y (active), N (inactive)

{"columns": ["compound", "classAssignment"],
 "data": [
  ["Nc1ncnc2c1ncn2[C@@H]1O[C@H](COP(=O)(O)O)[C@@H](O)[C@@H]1O", "N"],
  ["CNC(=O)[C@H]1O[C@H](n2cnc3c(NCc4cccc(I)c4)ncnc32)[C@@H](O)[C@@H]1O", "N"],
  ["COc1cc2nc(N3CCCN(C)CC3)nc(NC3CCN(Cc4ccccc4)CC3)c2cc1OC", "Y"],
  ["O=c1[nH]cnc2c1ncn2[C@@H]1O[C@H](CO)[C@@H](O)[C@H]1O", "N"],
  ["CSc1nc(N)c2ncn([C@@H]3O[C@H](COP(=O)(O)OP(=O)(O)OP(=O)(O)O)C(O)[C@H]3O)c2n1 (stereo partly drawn)", "Y"],
  ["COc1cc2nc(N3CCCN(C)CC3)nc(NC(C)C)c2cc1OC", "Y"]
]}

Query: What did this assay record as the result for "COc1cc2nc(N3CCCCC3)nc(NC(C)C)c2cc1OC" ?
Response: Y

Query: What did this assay record as the result for "Nc1ncnc2c1ncn2[C@@H]1O[C@@H](CO)[C@H](O)[C@H]1O" ?
Response: N

Query: What did this assay record as the result for CC(C)N(C[C@H]1O[C@@H](n2cnc3c(N)ncnc32)[C@H](O)[C@@H]1O)C1CC(CCc2nc3ccc(C(C)(C)C)cc3[nH]2)C1 (stereo partly drawn) ?
Response: N
